Reported pIC50 values are given for each entry in this list.
subject.of.test: Tyrosine-protein kinase BTK (Homo sapiens, UniProt Q06187)
Sequence (Q06187 whole entry): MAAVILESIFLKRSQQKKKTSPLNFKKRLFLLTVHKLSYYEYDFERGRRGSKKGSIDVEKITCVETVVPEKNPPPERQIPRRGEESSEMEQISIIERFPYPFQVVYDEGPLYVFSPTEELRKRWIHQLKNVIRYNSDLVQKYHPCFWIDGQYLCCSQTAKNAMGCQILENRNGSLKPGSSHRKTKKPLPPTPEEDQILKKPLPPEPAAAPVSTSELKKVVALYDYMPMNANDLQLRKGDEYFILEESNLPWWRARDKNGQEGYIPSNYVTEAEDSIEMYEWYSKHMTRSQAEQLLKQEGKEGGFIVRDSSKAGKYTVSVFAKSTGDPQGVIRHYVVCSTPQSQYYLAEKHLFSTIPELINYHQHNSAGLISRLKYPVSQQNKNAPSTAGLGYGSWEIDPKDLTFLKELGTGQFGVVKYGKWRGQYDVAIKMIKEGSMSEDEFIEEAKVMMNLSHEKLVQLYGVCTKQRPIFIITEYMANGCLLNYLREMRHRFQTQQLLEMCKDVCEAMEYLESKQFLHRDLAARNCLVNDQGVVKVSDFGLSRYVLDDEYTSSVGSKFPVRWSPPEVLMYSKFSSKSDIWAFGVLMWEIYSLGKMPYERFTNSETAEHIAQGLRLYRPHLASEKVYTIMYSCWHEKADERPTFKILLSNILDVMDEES
protocol.details: Inhibition of BTK (unknown origin)
pIC50: −log10 of the molar value.

mol	pIC50
Cc1cc(-c2ccnc(Nc3cnn(C)c3)n2)ccc1CN1CCN(C2CCC2)CC1=O	7.96
Cc1cc(-c2ccnc(Nc3cnn(C4CN(C)C4)c3)n2)ccc1CN1CCN(CC(C)(C)C)CC1=O	8.15
C=CC(=O)N(C)CCOc1cncnc1-c1ccc(CN2CCN(CC(C)(C)C)CC2=O)cc1	7.77
Cc1cc(-c2ccnc(Nc3cnn(C)c3)n2)ccc1CN1CCN(CC2(C)CC2)CC1=O	8.15
C=CC(=O)N(C)CCOc1cncnc1-c1ccc(CN2CCN(CC(F)(F)F)CC2=O)c(C)c1	7.92

Reference source: ChEMBL document CHEMBL5131445
